The values you see were collected from patent US20200223906A1.

Assignment: determine reported Kd for the given binders.
- System tested: T1, RSV F subtype B, furin-cleaved ectodomain stabilized in the prefusion conformation (DS-Cav1) (Respiratory syncytial virus subtype B)
- T1 construct: extracellular domain; Trimeric soluble antigen; also called Prefusion subtype B
- Test details: BLI, IgG on AHQ sensor, 100 nM antigen
Just the number plus its unit, please.

Value lookup for Kd; key = ADI-18879 (antibody, V domains shown, full-length IgG from yeast) VH: EVQLLESGGEVKKPGASVKVSCRASGYTFRNYGLTWVRQAPGQGLEWMGWISAYNGNTNYAQKFQGRVTLTTDTSTSTAYMELRSLRSDDTAVYFCARDVPGHGAAFMDVWGTGTTVTVSS VL: DIQLTQSPLSLPVTLGQPASISCRSSQSLEASDTNIYLSWFQQRPGQSPRRLIYKISNRDSGVPDRFSGSGSGTHFTLRISRVEADDVAVYYCMQGTHWPPAFGQGTKVDIK
0.358 nM

Value lookup for Kd; key = ADI-18940 (antibody, V domains shown, full-length IgG from yeast) VH: QVQLVQSGAGVKKPGASVRVSCTASGYTFTDYFINWVRQAPGGGLEWMGWVNPLSGATRYAQNFAGRVTMTTDTSITTGYLDLRNLRLDDTAVYFCASQSSPYTPGAMDVWGQGTTVTVSS VL: DIVMTQSPSSLSASVGDRVSITCRTSQTISGYISWYQKKPGKAPKLLIYAASNMYSGVPSRFSGSESGTDFTLTITSLQPEDFATYFCQLNSGALFTFGPGTKVDIK
1.56 nM

Value lookup for Kd; key = ADI-18894 (antibody, V domains shown, full-length IgG from yeast; also called Antibody Number 249; Ab # 249) VH: QVQLVQSGGGVVQPGRSLKHSCAASGFTFNNYAIHWVRQAPGKGLEWVAAISYDGSNEYYSNSVKGRFTISRDNSKYTLYLQMNSLRPEDTAVYYCARGASYYYVSSDLGYWGQGTLVTVSS VL: QPVLTQPPSVSGAPGQRVTISCTGSSSNIGSGYDVHWYQQLPGTAPKVVIYGNINRPSGVPERFSGSKSGTSASLAITGLQAEDEADYYCQSYDSLSASWVFGGGTKLTVL
0.327 nM
